test system: HOP-62; assay: relative viability (nuclei count vs DMSO), 5 days (fraction); higher = more cells survive; details: first compound 0.253 µM
Please use condition met for relative viability under 0.5 and condition not met for everything else, ties included.

Strictly below 0.5 in relative viability? Oc1nc(-c2ccc(C(F)(F)F)cc2)nc2c1CSCC2 [XAV939] + N=C(N)NC(=N)NCCc1ccccc1 [Phenformin] (partner 250 µM) condition not met

Strictly below 0.5 in relative viability? C=C1C(=O)O[C@@H](CCCCCCCC)[C@@H]1C(=O)O [C-75] + NC(=O)Nc1cc(-c2cccc(F)c2)sc1C(=O)N[C@H]1CCCNC1 [AZD7762] (partner 0.2 µM) condition not met

Strictly below 0.5 in relative viability? Oc1nc(-c2ccc(C(F)(F)F)cc2)nc2c1CSCC2 [XAV939] + CC(=O)c1c(C)c2cnc(Nc3ccc(N4CCNCC4)cn3)nc2n(C2CCCC2)c1=O [Palbociclib] (partner 0.5 µM) condition met

Strictly below 0.5 in relative viability? C=C1C(=O)O[C@@H](CCCCCCCC)[C@@H]1C(=O)O [C-75] + CC(=O)Nc1cccc(-n2c(=O)n(C3CC3)c(=O)c3c(Nc4ccc(I)cc4F)n(C)c(=O)c(C)c32)c1 [Trametinib] (partner 0.02 µM) condition met

Strictly below 0.5 in relative viability? Oc1nc(-c2ccc(C(F)(F)F)cc2)nc2c1CSCC2 [XAV939] + C[C@@H](Oc1cc(-c2cnn(C3CCNCC3)c2)cnc1N)c1c(Cl)ccc(F)c1Cl [Crizotinib] (partner 1 µM) condition not met

Strictly below 0.5 in relative viability? C=C1C(=O)O[C@@H](CCCCCCCC)[C@@H]1C(=O)O [C-75] + Cc1cc(Nc2cc(N3CCN(C)CC3)nc(Sc3ccc(NC(=O)C4CC4)cc3)n2)n[nH]1 [Tozasertib] (partner 0.1 µM) condition met

Strictly below 0.5 in relative viability? C=C1C(=O)O[C@@H](CCCCCCCC)[C@@H]1C(=O)O [C-75] + CC(=O)c1c(C)c2cnc(Nc3ccc(N4CCNCC4)cn3)nc2n(C2CCCC2)c1=O [Palbociclib] (partner 0.5 µM) condition met

====

tested on: SK-LU-1; test: relative viability (nuclei count vs DMSO), 5 days (fraction); higher = more cells survive; conditions: first compound 0.5 µM
assay.endpoint: relative viability
No unit in the answer, please; the number alone is enough.

Identify measured relative viability obtained with SK-LU-1 for CC1(C)CCC(c2ccc(Cl)cc2)=C(CN2CCN(c3ccc(C(=O)NS(=O)(=O)c4ccc(N[C@H](CCN5CCOCC5)CSc5ccccc5)c(S(=O)(=O)C(F)(F)F)c4)cc3)CC2)C1 [Navitoclax] + CS(=O)(=O)CCNCc1ccc(-c2ccc3ncnc(Nc4ccc(OCc5cccc(F)c5)c(Cl)c4)c3c2)o1 [Lapatinib] (partner 2 µM) . 0.753

Identify measured relative viability obtained with SK-LU-1 for CC1(C)CCC(c2ccc(Cl)cc2)=C(CN2CCN(c3ccc(C(=O)NS(=O)(=O)c4ccc(N[C@H](CCN5CCOCC5)CSc5ccccc5)c(S(=O)(=O)C(F)(F)F)c4)cc3)CC2)C1 [Navitoclax] + C[C@@H](Oc1cc(-c2cnn(C3CCNCC3)c2)cnc1N)c1c(Cl)ccc(F)c1Cl [Crizotinib] (partner 1 µM) . 0.834

Identify measured relative viability obtained with SK-LU-1 for CC1(C)CCC(c2ccc(Cl)cc2)=C(CN2CCN(c3ccc(C(=O)NS(=O)(=O)c4ccc(N[C@H](CCN5CCOCC5)CSc5ccccc5)c(S(=O)(=O)C(F)(F)F)c4)cc3)CC2)C1 [Navitoclax] + CS(=O)(=O)N1CCN(Cc2cc3nc(-c4cccc5[nH]ncc45)nc(N4CCOCC4)c3s2)CC1 [Pictilisib] (partner 1 µM) . 0.483

Identify measured relative viability obtained with SK-LU-1 for CC1(C)CCC(c2ccc(Cl)cc2)=C(CN2CCN(c3ccc(C(=O)NS(=O)(=O)c4ccc(N[C@H](CCN5CCOCC5)CSc5ccccc5)c(S(=O)(=O)C(F)(F)F)c4)cc3)CC2)C1 [Navitoclax] + N=C(N)NC(=N)NCCc1ccccc1 [Phenformin] (partner 250 µM) . 0.513

Identify measured relative viability obtained with SK-LU-1 for CC1(C)CCC(c2ccc(Cl)cc2)=C(CN2CCN(c3ccc(C(=O)NS(=O)(=O)c4ccc(N[C@H](CCN5CCOCC5)CSc5ccccc5)c(S(=O)(=O)C(F)(F)F)c4)cc3)CC2)C1 [Navitoclax] + Nc1nc2[nH]cc(CCc3ccc(C(=O)N[C@@H](CCC(=O)O)C(=O)O)cc3)c2c(=O)[nH]1 [Pemetrexed] (partner 0.2 µM) . 0.819
